Assay: Inhibition of CEM cell growth (cytostatic activity)
Format: cell-based
Conditions: human, CEM cells, 50% cytostatic concentration, CEM cell proliferation; Table 1; read-out: CC50 (CEM)
readout_type: CC50

[
  {
    "compound": "Nc1cc(OCCOCP(=O)(O)O)nc(N)n1 [Compound 1]",
    "CC50": "11 µg/mL"
  },
  {
    "compound": "Nc1nc(O)cc(OCCOCP(=O)(O)O)n1 [Compound 4]",
    "CC50": "2.5 µg/mL"
  },
  {
    "compound": "Cc1cc(OCCOCP(=O)(O)O)nc(N)n1 [Compound 9]",
    "CC50": "> 100 µg/mL"
  },
  {
    "compound": "Nc1nc(O)cc(SCCOCP(=O)(O)O)n1 [Compound 5]",
    "CC50": "> 100 µg/mL"
  },
  {
    "compound": "Nc1cc(SCCOCP(=O)(O)O)nc(N)n1 [Compound 2]",
    "CC50": "64 µg/mL"
  },
  {
    "compound": "Nc1cc(OCCOCP(=O)(O)O)ncn1 [Compound 3]",
    "CC50": "> 100 µg/mL"
  },
  {
    "compound": "CN(C)c1cc(OCCOCP(=O)(O)O)nc(N)n1 [Compound 6]",
    "CC50": "> 100 µg/mL"
  }
]

// query Provide only the value of recorded CC50 for CSc1nc(N)cc(OCCOCP(=O)(O)O)n1 [Compound 8]
// result > 100 µg/mL

----------
Known EC50 of a selection of compounds
System: HIV-1(IIIB)
Test: HIV-1(IIIB)-induced cytopathicity in CEM cell cultures
Type: cell-based
Conditions: Human immunodeficiency virus 1, CCRF-CEM; HIV-1 (IIIB) in CEM; dThd 10 μM; read-out: EC50 upon addition of dThd (10 μM)
Reply with just the number (in µg/mL).

[
  {
    "compound": "Nc1cc(OCCOCP(=O)(O)O)nc(N)n1 [Compound 1]",
    "readout_type": "EC50",
    "measurement": 0.35
  }
]

// query Provide only the value of recorded EC50 for Nc1ncnc2c1ncn2CCOCP(=O)(O)O [PMEA, 9-[(2-phosphono-methoxy)ethyl]adenine, reference compound]
// result 1.4

// query Provide only the value of recorded EC50 for Nc1nc(O)cc(OCCOCP(=O)(O)O)n1 [Compound 4]
// result 1

// query Provide only the value of recorded EC50 for Nc1cc(SCCOCP(=O)(O)O)nc(N)n1 [Compound 2]
// result 1.4

----------
Known CC50 (CEM) of a selection of molecules
Test system: CEM cells
Assay: Inhibition of CEM cell growth (cytostatic activity)
Format: cell-based
Settings: 50% cytostatic concentration, CEM cell proliferation; Table 1
Reply with just the number (in µg/mL).

[
  {
    "molecule": "C[C@H](COc1cc(N)nc(N)n1)OCP(=O)(O)O",
    "endpoint_unit": "µg/mL",
    "CC50 (CEM)": 62
  }
]

// query Provide only the value of recorded CC50 (CEM) for C[C@H](Cn1cnc2c(N)ncnc21)OCP(=O)(O)O [(R)-PMPA, reference compound]
// result 125

----------
Assay: Alteration of C3H cell morphology (minimal inhibitory concentration)
Type: cell-based, murine
Conditions: mouse; microscopically visible alteration of cell morphology; > means no visible toxicity at the indicated concentration; read-out: CC50 C3H (minimal inhibitory concentration)
readout_type: Minimal concentration causing visible cell morphology alteration

// query Provide only the value of recorded Minimal concentration causing visible cell morphology alteration for Nc1ncnc2c1ncn2CCOCP(=O)(O)O [PMEA, 9-[(2-phosphono-methoxy)ethyl]adenine, reference compound]
// result > 40 µg/mL

Provenance of the data: patent US20050038058A1
